B1: NEK8 (parent)
chain: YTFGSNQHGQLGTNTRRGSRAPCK

variants of: B1; assay: protein stability index of a GFP-peptide fusion (GPS, HEK-293T) (PSI 1-6); higher = more stable; details: c terminus: a fixed tail appended;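 also: lentivirally expressed fusions sorted by FACS into six bins by GFP to DsRed ratio, PSI derived from sequencing read proportions per bin multiplied by bin number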
Respond with condition met for protein stability index values of 4 and above, condition not met for values below.

| variant-label | qualitative-label |
| --- | --- |
| Q7H | condition not met |
| T13I | condition not met |
| H8W | condition not met |
| G9C | condition not met |
| P22Y | condition not met |
| Q7A | condition not met |
| N14Y | condition not met |
| R16M | condition not met |
| Q10A | condition met |
| F3K | condition met |
| G18L | condition not met |
| H8T | condition not met |
| P22K | condition not met |
| N6Y | condition not met |
| G12A | condition met |
| T2F | condition not met |
| T2Y | condition met |
| Q10S | condition not met |
| Q7C | condition not met |
| S5T | condition met |
| T2K | condition not met |
| G12L | condition met |
| S5K | condition not met |
| G9W | condition not met |
| Y1T | condition met |
| K24A | condition not met |
| G12T | condition met |
| P22A | condition not met |
| A21H | condition not met |
| C23E | condition met |
| S19N | condition not met |
| K24G | condition met |
| Q10N | condition not met |
| R16S | condition not met |
| S5G | condition not met |
| P22M | condition not met |
| G9Y | condition not met |
| N6F | condition not met |
| R17A | condition not met |
| A21M | condition not met |
| S5I | condition not met |
| T13M | condition not met |
| S19Y | condition not met |
| C23N | condition met |
| G9L | condition not met |
| F3T | condition not met |
| R17T | condition not met |
| N6L | condition not met |
| A21K | condition met |
| N6W | condition not met |
| L11E | condition met |
| T15S | condition met |
| R20D | condition not met |
| K24Q | condition not met |
| Y1F | condition not met |
| K24M | condition not met |
| Q7I | condition not met |
| N14C | condition not met |
| H8D | condition met |
| P22C | condition not met |
| N6K | condition not met |
| N14F | condition not met |
